Biological target: wild-type human cardiac sodium channel, hNav1.5 (Homo sapiens, UniProt Q14524)
Sequence (Q14524 whole entry): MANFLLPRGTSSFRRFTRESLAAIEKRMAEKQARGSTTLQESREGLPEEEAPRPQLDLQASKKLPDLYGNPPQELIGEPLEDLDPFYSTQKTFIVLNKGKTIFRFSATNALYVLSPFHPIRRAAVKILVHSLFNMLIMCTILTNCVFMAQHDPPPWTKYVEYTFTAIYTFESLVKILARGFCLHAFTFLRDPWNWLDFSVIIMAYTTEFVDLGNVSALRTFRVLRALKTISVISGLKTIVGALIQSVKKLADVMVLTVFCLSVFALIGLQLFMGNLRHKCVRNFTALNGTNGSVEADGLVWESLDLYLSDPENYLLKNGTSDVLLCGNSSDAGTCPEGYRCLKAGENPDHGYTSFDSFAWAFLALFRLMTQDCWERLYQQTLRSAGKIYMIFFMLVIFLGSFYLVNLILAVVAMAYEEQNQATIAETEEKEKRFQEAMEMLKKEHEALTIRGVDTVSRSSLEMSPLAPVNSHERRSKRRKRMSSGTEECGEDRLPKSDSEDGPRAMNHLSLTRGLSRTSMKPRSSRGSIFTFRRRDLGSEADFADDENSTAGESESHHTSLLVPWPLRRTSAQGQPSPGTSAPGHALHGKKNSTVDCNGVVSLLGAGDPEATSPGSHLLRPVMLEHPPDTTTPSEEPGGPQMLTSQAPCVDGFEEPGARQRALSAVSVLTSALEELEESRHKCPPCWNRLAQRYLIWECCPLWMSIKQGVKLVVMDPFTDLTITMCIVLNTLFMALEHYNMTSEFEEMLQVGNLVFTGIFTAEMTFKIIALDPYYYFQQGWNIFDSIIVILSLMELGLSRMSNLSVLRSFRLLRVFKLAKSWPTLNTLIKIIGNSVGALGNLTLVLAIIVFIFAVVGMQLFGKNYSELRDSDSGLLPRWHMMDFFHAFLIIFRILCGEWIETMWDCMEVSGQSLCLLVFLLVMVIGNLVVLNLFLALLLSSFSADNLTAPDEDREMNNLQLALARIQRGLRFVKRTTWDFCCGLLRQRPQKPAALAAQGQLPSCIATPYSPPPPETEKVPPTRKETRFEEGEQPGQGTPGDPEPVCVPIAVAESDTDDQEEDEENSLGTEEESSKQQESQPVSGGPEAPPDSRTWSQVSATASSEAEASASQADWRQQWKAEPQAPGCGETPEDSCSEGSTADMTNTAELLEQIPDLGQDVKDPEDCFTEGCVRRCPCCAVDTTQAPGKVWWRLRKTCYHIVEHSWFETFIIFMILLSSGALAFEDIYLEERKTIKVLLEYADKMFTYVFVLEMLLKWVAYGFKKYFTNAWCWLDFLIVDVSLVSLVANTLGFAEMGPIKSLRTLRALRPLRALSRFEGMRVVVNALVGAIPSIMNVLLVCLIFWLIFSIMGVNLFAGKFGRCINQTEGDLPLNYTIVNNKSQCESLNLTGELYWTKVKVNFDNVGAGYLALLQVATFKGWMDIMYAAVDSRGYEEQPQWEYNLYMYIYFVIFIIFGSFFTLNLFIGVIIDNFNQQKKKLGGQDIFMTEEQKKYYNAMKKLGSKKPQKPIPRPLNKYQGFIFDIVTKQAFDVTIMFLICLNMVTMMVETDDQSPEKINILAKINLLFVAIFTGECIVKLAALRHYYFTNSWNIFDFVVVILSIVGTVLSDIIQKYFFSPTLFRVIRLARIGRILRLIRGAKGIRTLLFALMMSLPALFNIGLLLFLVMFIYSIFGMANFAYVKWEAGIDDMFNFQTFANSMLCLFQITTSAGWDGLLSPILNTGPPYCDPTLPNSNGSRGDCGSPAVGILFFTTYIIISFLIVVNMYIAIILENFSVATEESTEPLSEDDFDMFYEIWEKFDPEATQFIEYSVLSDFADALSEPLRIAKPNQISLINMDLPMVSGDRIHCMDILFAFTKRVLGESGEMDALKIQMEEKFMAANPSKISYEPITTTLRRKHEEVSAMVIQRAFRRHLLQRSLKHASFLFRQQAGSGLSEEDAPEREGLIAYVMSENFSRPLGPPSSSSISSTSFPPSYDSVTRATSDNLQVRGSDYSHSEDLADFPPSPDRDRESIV
Assay: Late INa screening assay (automated whole cell patch clamp, PatchXpress)
Assay type: cell-based
Conditions: compound at 10 μM; HEK293 cells expressing hNav1.5; late INa generated with 10 μM Tefluthrin (or 50 nM ATX II); read-out: LateINa_10 uM (percent block of late INa)
Description: The late sodium current (Late INa) and peak sodium current (Peak INa) assays are performed on an automated electrophysiology platform, PatchXpress 7000A (MDS Analytical Technologies, Sunnyvale, Calif.), which uses the whole cell patch clamp technique to measure currents through the cell membrane of up to 16 cells at a time. […]
# inhibition at 10 µM annotations
Kindly provide the numeric value in % only, without the unit symbol.

>>> print(df.to_string())
                                   compound     observation_type  endpoint_value
0  Cc1cc(OC(F)(F)F)ccc1-c1ccc2nnc(C(C)C)n2n1 [BHN-33]  inhibition at 10 µM            75.9
1  CCOC(=O)c1ccc(-c2nnc3ccc(-c4ccc(OC(F)(F)F)cc4)cn23)cc1 [BHN-86]  inhibition at 10 µM            86.9

Which inhibition at 10 µM value belongs to CC(C)(O)c1ccc(-c2ccc3nnc(C(F)(F)F)n3c2)cc1 [BHN-48] ? 18.9

Recorded inhibition at 10 µM for Cn1cc(-c2nnc3ccc(-c4ccc(Oc5ccccc5)cc4)nn23)cn1 [BHN-43] , please? 25.2

Quick one: inhibition at 10 µM for CC(C)(C)c1nnc2ccc(-c3ccc(Oc4ccccc4)cc3)nn12 [BHN-35] ? 68.6

Quick check: inhibition at 10 µM of FC(F)(F)c1nnc2ccc(-c3cccc(Oc4ccccc4)c3)cn12 [BHN-9] ? 75.7

Which value of inhibition at 10 µM has been reported for FC(F)c1nnc2ccc(-c3ccc(Oc4ccccc4)cc3)nn12 [BHN-13] in the records? 87.1

Quick check: inhibition at 10 µM of FC(F)(F)c1nnc2ccc(-c3cnc(C4CC4)nc3)cn12 [BHN-89] ? 20.5

I have this compound here, Cc1nc2ccc(-c3cccc(Oc4ccccc4)c3)cn2n1 [BHN-348] , and I need its recorded inhibition at 10 µM. 65.7

inhibition at 10 µM for FC(F)(F)COc1ccc(-c2ccc3cnc(C(F)(F)F)n3c2)cc1 [BHN-28] ? 78.3

----------
Target: wild-type human cardiac sodium channel, hNav1.5 (Homo sapiens, UniProt Q14524)
Assay: Late INa screening assay (automated whole cell patch clamp, PatchXpress)
Type: cell-based
Conditions: compound at 10 μM; HEK293 cells expressing hNav1.5; late INa generated with 10 μM Tefluthrin (or 50 nM ATX II); read-out: LateINa_10 uM (percent block of late INa)
# reported inhibition at 10 µM; entries follow
Write down the numeric answer in % and omit the unit.

>>> df
                                   compound     observation_type  endpoint_value
0  FC(F)(F)c1nnc2ccc(-c3ccc(C4CC4)cc3)cn12 [BHN-90]  inhibition at 10 µM            74.9
1  CN1CCN(Cc2cc(-c3ccc4nnc(C(F)(F)F)n4c3)ccc2OC(F)(F)F)CC1 [BHN-81]  inhibition at 10 µM            30.3
2  Cc1cc(-c2ccc(Oc3ccccc3)cc2)cn2ncnc12 [BHN-349]  inhibition at 10 µM            65.1

Please examine the following record next.
Recorded inhibition at 10 µM for Cc1cc2nnc(C(F)(F)F)n2cc1-c1cccc(OC(F)(F)F)c1 [BHN-17] , please? 25.3
